# Emax annotations
Molecular target: human MRGPRX4-83L (Homo sapiens, UniProt Q96LA9)
Construct: host or cells: CHO β-arrestin cells
Sequence (Q96LA9 whole entry): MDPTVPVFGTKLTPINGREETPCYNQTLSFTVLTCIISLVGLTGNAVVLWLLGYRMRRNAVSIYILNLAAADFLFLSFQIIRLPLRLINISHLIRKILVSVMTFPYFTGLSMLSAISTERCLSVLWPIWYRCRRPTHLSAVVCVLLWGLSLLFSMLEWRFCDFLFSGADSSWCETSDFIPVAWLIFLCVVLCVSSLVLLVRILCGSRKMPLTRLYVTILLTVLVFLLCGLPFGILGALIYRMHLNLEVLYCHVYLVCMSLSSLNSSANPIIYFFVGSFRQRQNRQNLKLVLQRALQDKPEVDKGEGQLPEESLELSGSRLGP
Test: Calcium assay (human MRGPRX4 83L), recombinant astrocytes
Assay type: cell-based
Conditions: Table 1; efficacy based on maximal effect of 1 μM B-16 (set as 100%); read-out: Emax
measurement.kind: Emax (%)

INSERT INTO results (compound, measurement_kind, numeric_readout) VALUES
  ('COc1cccc(CCc2nc3c([nH]2)c(=O)n(CC2CCC2)c(=O)n3CCCCP(=O)(O)O)c1', 'Emax', 94),
  ('C#CCn1c(=O)c2[nH]c(CCc3ccc(OC)cc3OC)nc2n(CCCCP(=O)(O)O)c1=O', 'Emax', 113),
  ('C#CCn1c(=O)c2c(nc(CCc3cccc(OC)c3)n2C)n(CCCOP(=O)(O)O)c1=O [H-1, reference compound]', 'Emax', 107),
  ('C#CCn1c(=O)c2c(nc(CCc3ccccc3Br)n2Cc2ccccc2)n(CCCCP(=O)(O)O)c1=O', 'Emax', 103),
  ('C#CCn1c(=O)c2[nH]c(CCc3ccccc3OC)nc2n(CCCCP(=O)(O)O)c1=O', 'Emax', 108),
  ('CCn1c(=O)c2[nH]c(CCc3cccc(OC)c3)nc2n(CCCCP(=O)(O)O)c1=O', 'Emax', 104),
  ('C#CCn1c(=O)c2[nH]c(CCc3cccc(F)c3)nc2n(CCCCP(=O)(O)O)c1=O', 'Emax', 110),
  ('C#CCn1c(=O)c2c(nc(CCc3ccccc3Br)n2CCC)n(CCCCP(=O)(O)O)c1=O', 'Emax', 119),
  ('C#CCn1c(=O)c2[nH]c(CCc3cccc(OC)c3)nc2n(CCCCP(=O)(O)OCC)c1=O', 'Emax', 114),
  ('C#CCn1c(=O)c2[nH]c(CCc3ccccc3)nc2n(CCCCP(=O)(O)O)c1=O', 'Emax', 110);

====

Target: human MRGPRX4-83L (Homo sapiens, UniProt Q96LA9)
Construct: host or cells: CHO β-arrestin cells
Experiment: β-arrestin assay (CHO β-arrestin ARMS1-ProLink 2 human MRGPRX4 83L)
Assay type: cell-based
measurement.kind: EC50

INSERT INTO measurements (chemical_structure, result) VALUES
  ('C#CCn1c(=O)c2c(nc(CCc3ccccc3Br)n2CCCl)n(CCCCP(=O)(O)O)c1=O', '24.3 nM');

====

Target: MRGPRX4-83S (Homo sapiens, UniProt Q96LA9, L83S)
Sequence (Q96LA9 whole entry L83S): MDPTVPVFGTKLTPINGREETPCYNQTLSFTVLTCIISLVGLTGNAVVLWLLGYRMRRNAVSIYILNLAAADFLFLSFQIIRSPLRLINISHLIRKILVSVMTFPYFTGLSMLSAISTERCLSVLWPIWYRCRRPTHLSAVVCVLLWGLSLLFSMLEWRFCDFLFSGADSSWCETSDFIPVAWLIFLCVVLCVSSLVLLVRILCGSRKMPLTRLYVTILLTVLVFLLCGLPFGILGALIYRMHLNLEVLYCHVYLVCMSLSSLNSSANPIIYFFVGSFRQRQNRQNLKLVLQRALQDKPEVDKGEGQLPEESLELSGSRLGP
Assay: Calcium assay (human glioblastoma LN229 cells expressing the MRGPRX4-83S)
Type: cell-based
Set-up: LN229 glioblastoma cells natively expressing the MRGPRX4-83S; endogenous in cells; host or cells: LN229 human glioblastoma cells
Details: LN-229; Table 2; efficacy based on 30 μM H-1 (set as 100%); read-out: Emax
measurement.kind: Emax (%)

INSERT INTO results (compound, numeric_readout) VALUES
  ('C#CCn1c(=O)c2[nH]c(CCc3cccc(Br)c3)nc2n(CCCCP(=O)(O)O)c1=O [B-4]', 109),
  ('CCn1c(=O)c2[nH]c(CCc3ccc(F)cc3)nc2n(CCCCP(=O)(O)O)c1=O [B-14]', 74),
  ('C#CCn1c(=O)c2[nH]c(CCc3cccc(OC)c3)nc2n(CCCCP(=O)(O)OCC)c1=O [D-3]', 111),
  ('C#CCn1c(=O)c2[nH]c(CCc3cccc(F)c3)nc2n(CCCCP(=O)(O)O)c1=O [B-3]', 118),
  ('C#CCn1c(=O)c2[nH]c(CCc3cccc(C(F)(F)F)c3)nc2n(CCCCP(=O)(O)O)c1=O [B-6]', 150),
  ('C#CCn1c(=O)c2c(nc(CCc3ccccc3Br)n2C)n(CCCCP(=O)(O)OCC)c1=O [D-1]', 105);
